Measured phytotoxicity rating ABUTH accompanies every entry in the list below.
Test system: velvetleaf (Abutilon theophrasti, ABUTH)
Assay: Post-emerge test, greenhouse herbicide activity screening
Assay type: in vivo
Conditions: post-emerge, 250 g ai/ha, 14 days after application, rating scale 0-100
Method: A standard greenhouse herbicide activity screening system was used to evaluate the herbicidal efficacy and crop safety of these test compounds. […] At 14 days after application of the test materials, phytotoxicity ratings were recorded. […]

Solved cases below.
Per the records, this molecule ( COc1c(Cl)cc(F)c(-n2c(=O)cc(C(F)(F)F)n(C)c2=O)c1NC(=O)OCc1c(F)c(F)c(F)c(F)c1F [4-48] ) has phytotoxicity rating ABUTH equal to 100

Field phytotoxicity rating ABUTH (entry COc1c(Cl)cc(F)c(-n2c(=O)cc(C(F)(F)F)n(C)c2=O)c1NC(=O)Oc1c(C)cc(C)cc1C [4-25] ) reads 95

# molecule Cn1c(C(F)(F)F)cc(=O)n(-c2c(F)cc(Cl)c(OC(F)F)c2NC(=O)c2ccc3ccccc3c2)c1=O [Compound 2-115] ; its phytotoxicity rating ABUTH = 100

Continuing:
Reported phytotoxicity rating ABUTH of COc1c(Cl)cc(F)c(-n2c(=O)cc(C(F)(F)F)n(C)c2=O)c1NC(=O)c1ccc(Cl)cc1Cl [2-58] : 100

Form field phytotoxicity rating ABUTH, entry COc1c(Cl)cc(F)c(-n2c(=O)cc(C(F)(F)F)n(C)c2=O)c1NC(=O)c1cc([N+](=O)[O-])cc([N+](=O)[O-])c1 [2-70] : 100

# molecule COc1c(Cl)cc(F)c(-n2c(=O)cc(C(F)(F)F)n(C)c2=O)c1NC(=O)COCc1ccccc1 [2-89] ; its phytotoxicity rating ABUTH = 100

For reference, reported phytotoxicity rating ABUTH for CC(C)Oc1c(Cl)cc(F)c(-n2c(=O)cc(C(F)(F)F)n(C)c2=O)c1NC(=O)c1ccc2ccccc2c1 [2-197] stands at 100

Documented phytotoxicity rating ABUTH of Cn1c(C(F)(F)F)cc(=O)n(-c2c(F)cc(Cl)c(O)c2NC(=O)c2ccc3ccccc3c2)c1=O [Compound 2-194] : 100

Short answer for COc1c(Cl)cc(F)c(-n2c(=O)cc(C(F)(F)F)n(C)c2=O)c1NC(=O)c1ccc(-c2ccccc2)cc1 [2-37] : phytotoxicity rating ABUTH was 30

So, COc1c(Cl)cc(F)c(-n2c(=O)cc(C(F)(F)F)n(C)c2=O)c1NC(N)=O [Compound 3-26] ? Its phytotoxicity rating ABUTH was 60

get_value(item= COc1c(Cl)cc(F)c(-n2c(=O)cc(C(F)(F)F)n(N)c2=O)c1NC(=O)c1ccc(F)cc1F [2-44] , readout=phytotoxicity rating ABUTH) returns 100

Per the records, this molecule ( COc1c(Cl)cc(F)c(-n2c(=O)cc(C(F)(F)F)n(C)c2=O)c1NC(=O)c1cc(F)cc(F)c1 [2-50] ) has phytotoxicity rating ABUTH equal to 100

For record COc1c(Cl)cc(F)c(-n2c(=O)cc(C(F)(F)F)n(C)c2=O)c1N(C(=O)C=Cc1ccccc1Cl)C(=O)C=Cc1ccccc1Cl [2-83] the listed phytotoxicity rating ABUTH is 70

---

# Post-emerge Herbicidal Activity CORN (crop damage) listing for each entry below
System: field corn (Zea mays L., var. Dekalb 535, CORN)
Assay: Post-emerge test, crop safety
Assay type: in vivo
Conditions: 250 g ai/ha; phytotoxicity rating 0-100 (0 no damage, 100 complete death), 14 days after application
A bare number is all that is needed in reply.

Previously resolved entries follow.
Cn1c(C(F)(F)F)cc(=O)n(-c2c(F)cc(Cl)c(OCC#N)c2NC(=O)C(F)(F)F)c1=O [2-11] tested on field corn (Zea mays L., var. Dekalb 535, CORN) gave Post-emerge Herbicidal Activity CORN (crop damage): 5

Here CC(C)Oc1c(Cl)cc(F)c(-n2c(=O)cc(C(F)(F)F)n(C)c2=O)c1N [Compound 1-63] was tested on field corn (Zea mays L., var. Dekalb 535, CORN), and its Post-emerge Herbicidal Activity CORN (crop damage) came to 0

Let me check: Cc1c(Cl)cc(F)c(-n2c(=O)cc(C(F)(F)F)n(C)c2=O)c1N [Compound 1-37] , system field corn (Zea mays L., var. Dekalb 535, CORN), measured Post-emerge Herbicidal Activity CORN (crop damage) is 60

Below: the item to evaluate.
# lookup: C=C(C)C(=O)N(C(=O)C(=C)C)c1c(OC)c(Cl)cc(F)c1-n1c(=O)cc(C(F)(F)F)n(C)c1=O [2-6] on field corn (Zea mays L., var. Dekalb 535, CORN), Post-emerge Herbicidal Activity CORN (crop damage) = 5

---

Test system: barnyardgrass (Echinochloa crus-galli, ECHCG)
Assay: Pre-emerge test, greenhouse herbicide activity screening
Format: in vivo
Conditions: pre-emerge, 63 g ai/ha, 14 days after application, scale 0-100
measured.parameter: phytotoxicity rating ECHCG
// return just the number, without any unit appended

Consider `COc1c(Br)cc(F)c(-n2c(=O)cc(C(F)(F)F)n(C)c2=O)c1N(C(=O)C=Cc1ccccc1)C(=O)C=Cc1ccccc1` . Its measured phytotoxicity rating ECHCG is 0

phytotoxicity rating ECHCG in this record for `COc1c(Cl)cc(F)c(-n2c(=O)cc(C(F)(F)F)n(C)c2=O)c1NC(=O)c1c(C)cccc1C` : 0

Further cases:
Documented phytotoxicity rating ECHCG of `Cn1c(C(F)(F)F)cc(=O)n(-c2ccc(C#N)cc2NC(=O)c2ccc3ccccc3c2)c1=O` : 40

// `COc1c(Cl)cc(F)c(-n2c(=O)cc(C(F)(F)F)n(C)c2=O)c1NC(=O)C=Cc1cccc(Cl)c1` : phytotoxicity rating ECHCG value = 0

---

System: velvetleaf (Abutilon theophrasti, ABUTH)
Experiment: Pre-emerge test, greenhouse herbicide activity screening
Type: in vivo
Settings: 250 g ai/ha; rating scale 0-100, 14 days after application
Each record here notes measured Pre-emerge herbicidal activity, phytotoxicity rating ABUTH.
Enter a number only.

Field Pre-emerge herbicidal activity, phytotoxicity rating ABUTH (system: velvetleaf (Abutilon theophrasti, ABUTH)) for entry COc1c(Cl)cc(F)c(-n2c(=O)cc(C(F)(F)F)n(C)c2=O)c1CC(C)(Cl)C(=O)OC(C(F)(F)F)C(F)(F)F (stereo not drawn) = 100

`COc1c(Cl)cc(F)c(N2C(=O)c3ccccc3C2=O)c1NC(=O)c1ccc2ccccc2c1` tested on velvetleaf (Abutilon theophrasti, ABUTH) gave Pre-emerge herbicidal activity, phytotoxicity rating ABUTH: 20

Item: COc1c(Cl)cc(F)c(-n2c(=O)cc(C(F)(F)F)n(C)c2=O)c1CC(Cl)C(=O)OCC(F)(F)F (stereo not drawn) | System: velvetleaf (Abutilon theophrasti, ABUTH) | Pre-emerge herbicidal activity, phytotoxicity rating ABUTH: 100

---

Recorded measurements of AMARE phytotoxicity rating, one per entry
Tested on: redroot pigweed (Amaranthus retroflexus, AMARE)
Assay: Post-emerge test, greenhouse herbicide activity screening
Format: in vivo
Conditions: post-emerge, 250 g ai/ha, 14 days after application, rating scale 0-100
Reply: number alone, nothing else.

Recorded AMARE phytotoxicity rating (molecule `Cn1c(C(F)(F)F)cc(=O)n(-c2ccc(C#N)cc2NC(=O)c2ccc3ccccc3c2)c1=O` ): 100

AMARE phytotoxicity rating recorded for this molecule, `CCCSCC(=O)Nc1c(OC)c(Cl)cc(F)c1-n1c(=O)cc(C(F)(F)F)n(C)c1=O` , is 60

The value of AMARE phytotoxicity rating measured for the molecule `COc1c(C#N)cc(F)c(-n2c(=O)cc(C(F)(F)F)n(C)c2=O)c1NC(=O)c1ccc2ccccc2c1` turned out to be 100

Entry `COc1c(Cl)cc(F)c(-n2c(=O)cc(C(F)(F)F)n(C)c2=O)c1NC(=O)c1c(C)cccc1C` ; AMARE phytotoxicity rating = 90

So, `CCSCC(=O)Nc1c(OC)c(Cl)cc(F)c1-n1c(=O)cc(C(F)(F)F)n(C)c1=O` ? Its AMARE phytotoxicity rating was 60

---

Test system: upland rice (Oryza sp., var. Tebonnet, RICE)
Experiment: Post-emerge test, crop safety
Assay type: in vivo
Details: 250 g ai/ha; post-emerge; 14 days after application; rating scale 0-100
Output 1 (yes) for Post-emerge Herbicidal Activity RICE (crop damage rating) not less than 80; output 0 (no) otherwise.

Worked examples follow.
Exercise: Is reported Post-emerge Herbicidal Activity RICE (crop damage rating) greater than or equal to 80 here: `COc1c(Cl)cc(F)c(-n2c(=O)cc(C(F)(F)F)n(C)c2=O)c1NN=C1CCc2ccccc2C1`
Key: 1 (yes)

Exercise: Can `COc1c(Cl)cc(F)c(-n2c(=O)cc(C(F)(F)F)n(C)c2=O)c1SC` be said to have Post-emerge Herbicidal Activity RICE (crop damage rating) at or above 80?
Key: 0 (no)

Exercise: Assess whether reported Post-emerge Herbicidal Activity RICE (crop damage rating) for COc1c(Cl)cc(F)c(-n2c(=O)cc(C(F)(F)F)n(C)c2=O)c1NN=CC(C)c1ccccc1 (stereo not shown) sits at 80 or higher.
Key: 1 (yes)

***
Exercise: Decide: is the reported value of Post-emerge Herbicidal Activity RICE (crop damage rating) for `COc1c(Cl)cc(F)c(-n2c(=O)cc(C(F)(F)F)n(C)c2=O)c1NNC(=O)C1CC1` equal to or greater than 80?
Key: 0 (no)

Exercise: API: above_or_equal(metric=Post-emerge Herbicidal Activity RICE (crop damage rating), cutoff=80) for item CCOC(=O)C(Cl)Cc1c(OC)c(Cl)cc(F)c1-n1nc(C(F)(F)F)n(C)c1=O (stereo not shown)
Key: 0 (no)

Exercise: Hi team, for CCOC(=O)C(Cl)Cc1c(OCC)c(Cl)cc(F)c1-n1c(=O)cc(C(F)(F)F)n(C)c1=O (stereo not shown) , is the recorded Post-emerge Herbicidal Activity RICE (crop damage rating) at or above 80?
Key: 0 (no)
